The reported numbers originate from PubChem BioAssay.

Procedure details: antimalarial activity against Dd2 strain (AID 2302);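 note: 0% = DMSO untreated growth and 100% = chloroquine plus artemisinin killed control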
Measurement context: P. falciparum Dd2 in RBCs, LDH growth readout, 72 h; at 2 µM
The source made the active and inactive calls.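 Rule for the calls: active = growth inhibition above 50% at the single 2 µM test dose, taken to imply half-maximal potency below 2 µM; inactive = the rest.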
Your response should consist of one outcome taken from class 1 (active), class 0 (inactive)

Solved cases (5 shown):
Compound: CCCCNCCOc1ccc(-c2nc(-c3ccccc3)c(-c3ccccc3)[nH]2)cc1
Assigned class: class 0
//
Compound: CCn1ccc2c(N3CCCCS3(=O)=O)cc(C(=O)N[C@@H](Cc3ccccc3)[C@H](O)CNC(C)(C)CCCC(C)C)cc21
Assigned class: class 1
//
Compound: O=C(O)c1ccc(-c2cnc3ccc(NC4CCC(O)CC4)nn23)cc1 (centres undefined)
Assigned class: class 1
//
Compound: CCNc1cc(C(=O)N[C@@H](Cc2cccc(Cl)c2)[C@H](O)CNC(C)CCCC(C)C)cc(N2CCCCS2(=O)=O)c1 (some centres undefined)
Assigned class: class 1
//
Compound: Nc1nc(N)c2c(Sc3ccc(F)cc3)cccc2n1
Assigned class: class 0

**Q:** Dear colleague, could you share the recorded outcome for O=c1[nH]ccc2nc(N[C@@H]3CCNC3)nc(Nc3ccc4c(c3)S(=O)(=O)CC4)c12 when you have a moment?
**A:** class 1

**Q:** Can you check C=CCOc1ccc(Cc2cnc(N)nc2N)cc1CCC next?
**A:** class 0

**Q:** Would you kindly repeat that for COc1ccc(Nc2ncc(OC)c(Nc3ccccc3C(N)=O)n2)cc1N1CCN(C)CC1 ?
**A:** class 1

**Q:** Subsequent entry: Cc1[nH]c(C)c(-c2ccc(Oc3ccc(S(C)=O)cc3)cc2)c(=O)c1Br (centres undefined)
**A:** class 1
